System: NCI-H1975
Test: Anticancer activity against human NCI-H1975 cells after 2 days by MTT assay
Type: functional, cell-based
Conditions: NCI-H1975, 48 h
MEASUREMENT_NAME: pIC50
pIC50 (log units): -log10 of the concentration in mol/L.

What value of pIC50 has been reported for the following compound? Cn1c(-c2cccc(NC(=O)C(=O)Nc3ccc(-c4ccsc4)cc3)c2)c(I)c2cc(C(=O)O)c(O)cc21
6.77

----------
Molecular target: Receptor-type tyrosine-protein phosphatase epsilon (Homo sapiens)
Sequence (P23469 whole entry): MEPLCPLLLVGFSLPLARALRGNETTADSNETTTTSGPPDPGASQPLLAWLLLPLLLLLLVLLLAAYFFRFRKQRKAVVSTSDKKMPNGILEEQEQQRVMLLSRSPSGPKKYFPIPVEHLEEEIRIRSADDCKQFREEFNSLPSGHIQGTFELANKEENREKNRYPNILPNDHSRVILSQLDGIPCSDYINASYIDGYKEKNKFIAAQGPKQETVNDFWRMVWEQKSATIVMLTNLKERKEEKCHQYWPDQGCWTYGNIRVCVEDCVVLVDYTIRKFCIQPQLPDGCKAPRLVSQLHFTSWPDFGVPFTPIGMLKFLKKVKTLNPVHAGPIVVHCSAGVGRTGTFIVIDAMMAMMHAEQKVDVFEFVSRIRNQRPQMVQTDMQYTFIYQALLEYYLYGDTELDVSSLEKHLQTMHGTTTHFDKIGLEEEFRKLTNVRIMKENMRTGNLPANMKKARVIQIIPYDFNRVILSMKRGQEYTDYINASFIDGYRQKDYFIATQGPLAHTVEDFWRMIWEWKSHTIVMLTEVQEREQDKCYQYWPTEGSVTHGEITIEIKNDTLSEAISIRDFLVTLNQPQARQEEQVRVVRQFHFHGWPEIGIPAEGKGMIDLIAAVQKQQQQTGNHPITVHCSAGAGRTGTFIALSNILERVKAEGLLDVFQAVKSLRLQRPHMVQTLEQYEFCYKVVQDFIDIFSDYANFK
Test: Inhibition of PTPepsilon (unknown origin)
pIC50: −log10 of the molar value.
MEASUREMENT_NAME: pIC50

Query the reported pIC50 for Receptor-type tyrosine-protein phosphatase epsilon (Homo sapiens); item: Cn1c(-c2cccc(NC(=O)C(=O)Nc3ccc(-c4ccsc4)cc3)c2)c(I)c2cc(C(=O)O)c(O)cc21
< 4.70

----------
Molecular target: Tyrosine-protein phosphatase non-receptor type 11 (Homo sapiens)
Sequence (Q06124 whole entry): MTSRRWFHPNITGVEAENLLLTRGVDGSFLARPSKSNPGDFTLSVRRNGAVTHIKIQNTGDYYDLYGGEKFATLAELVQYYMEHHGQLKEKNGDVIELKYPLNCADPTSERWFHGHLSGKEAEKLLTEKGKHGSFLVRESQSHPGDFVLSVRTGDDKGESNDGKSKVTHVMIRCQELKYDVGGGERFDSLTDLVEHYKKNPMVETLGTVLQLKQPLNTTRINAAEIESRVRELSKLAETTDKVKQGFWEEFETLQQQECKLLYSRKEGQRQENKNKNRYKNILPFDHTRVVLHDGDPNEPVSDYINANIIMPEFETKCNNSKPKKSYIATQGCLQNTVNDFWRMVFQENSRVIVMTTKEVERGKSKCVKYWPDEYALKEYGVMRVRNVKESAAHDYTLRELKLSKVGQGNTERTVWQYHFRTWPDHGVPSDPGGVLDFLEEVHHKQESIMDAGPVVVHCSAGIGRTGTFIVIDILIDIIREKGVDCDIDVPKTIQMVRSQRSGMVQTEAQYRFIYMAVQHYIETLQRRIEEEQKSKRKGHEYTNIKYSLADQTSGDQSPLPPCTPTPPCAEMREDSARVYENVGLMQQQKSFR
pIC50: −log10 of the molar value.
MEASUREMENT_NAME: pIC50

Query the reported pIC50 for Tyrosine-protein phosphatase non-receptor type 11 (Homo sapiens); item: CCCN(CC1CC1)C(=O)CCC(=O)Nc1cccc(-c2c(I)c3cc(C(=O)O)c(O)cc3n2C)c1
< 4.70
